- study.system: HPK1 (Homo sapiens)
- Sequence (Q92918 1-346 limits assumed): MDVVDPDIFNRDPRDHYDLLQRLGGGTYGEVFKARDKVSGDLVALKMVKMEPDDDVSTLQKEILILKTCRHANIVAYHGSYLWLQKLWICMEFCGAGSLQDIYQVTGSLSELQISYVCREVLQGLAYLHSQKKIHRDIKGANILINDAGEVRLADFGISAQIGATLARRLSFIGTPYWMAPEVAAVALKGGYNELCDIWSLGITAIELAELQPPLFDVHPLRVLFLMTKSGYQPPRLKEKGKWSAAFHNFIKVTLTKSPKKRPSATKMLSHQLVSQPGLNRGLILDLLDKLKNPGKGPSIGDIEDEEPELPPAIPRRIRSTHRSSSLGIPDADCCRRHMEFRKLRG
- protocol.text: HPK1 kinase activity assay (ADP-Glo)
- condition.summary: HPK1 Kinase activity IC50 (nM), 1 nM HPK1, 10 μM ATP, 0.1 μg/μL MBP
attribute.measured: IC50 (nM)

Would you please look over these solved cases?
{"compound": "C[C@@H](C#N)c1c[nH]c2ncc(-c3cc4c(c([C@@H]5CCCN5)c3)COCC4)cc12 (single isomer, unassigned) [Compound Z104-2]", "study.system": "HPK1 (Homo sapiens)", "attribute.measured": "IC50", "units.label": "nM", "quantitative.readout": 0.74}
{"compound": "Cc1c[nH]c2ncc(-c3cc4c(c([C@@H]5CCCN5)c3)CN(C(=O)c3ccncc3)CC4)cc12 [Compound Z124]", "study.system": "HPK1 (Homo sapiens)", "attribute.measured": "IC50", "units.label": "nM", "quantitative.readout": 0.33}
{"compound": "Cc1c[nH]c2ncc(-c3cc4c(c([C@@H]5CCCN5)c3)CN(C(=O)c3cnn(C5CC5)c3C)CC4)cc12 [Compound Z346]", "study.system": "HPK1 (Homo sapiens)", "attribute.measured": "IC50", "units.label": "nM", "quantitative.readout": 0.43}

[a] Cc1c[nH]c2ncc(-c3cc4c(c(C5COC(N)=N5)c3)COCC4)cc12 (stereo not shown) [Compound Z243]
[b] Cc1c[nH]c2ncc(-c3cc4c(c([C@@H]5CCCN5)c3)CN(C(=O)c3cnc(C5CC5)nc3)CC4)cc12 [Compound Z351]
[c] Cc1c[nH]c2ncc(-c3cc4c(c([C@@H]5CCCN5)c3)CN(C(=O)C3(O)CCOCC3)CC4)cc12 [Compound Z244]
[d] Cc1c[nH]c2ncc(-c3cc4c(c(CN(C)C)c3)COCC4)cc12 [Compound Z103]
Inquiry: Please list these compounds in decreasing order of IC50. Give the labels in the order requested.
Reply text: a, d, b, c
(a: 16.5 nM, d: 2.65 nM, b: 0.87 nM, c: 0.35 nM)
